Reference source for all entries: the RNAGym collection of RNA variant scans (doi:10.7554/elife.80360)

B1: Twister Ribozyme (parent)
chain: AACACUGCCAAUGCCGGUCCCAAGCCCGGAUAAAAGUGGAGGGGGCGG

# Variants of: B1
# experiment_summary: self-cleavage, relative activity (ratio to wild type); higher = more cleavage; co-transcriptional
property: self-cleavage

INSERT INTO assay_data (primary_sequence, quantitative_result) VALUES
  ('AACACUGCCAAAGCCGGUCCCAAGCCCGGAUAAAAGUGGACGGGGCGG', 0.264),
  ('AACACUGCCAAUGCCGGUCUCAACCCCGGAUAAAAGUGGAGGGGGCGG', 0.0962),
  ('AACACUGCCAAUGCCGGUCCCAAGCCCGUAUAAAAGUGGAGGGAGCGG', 0.79),
  ('AACACUGCCAGUGCCGGUCCCAAGCCCGGAUAAAAGUGGAGGGGGAGG', 0.808),
  ('AACACUGCCAAUGCCGGUCCCAAGCCAGGAUAUAAGUGGAGGGGGCGG', 0.334),
  ('AACACUGGCAAUGCCGGUCCCAAGCCCGGAUAAAAGCGGAGGGGGCGG', 0.131),
  ('AAAACUGACAAUGCCGGUCCCAAGCCCGGAUAAAAGUGGAGGGGGCGG', 0.116),
  ('UACACUGCCAAUGCCGGUCCCAAGUCCGGAUAAAAGUGGAGGGGGCGG', 0.0883),
  ('AACACUGUAAAUGCCGGUCCCAAGCCCGGAUAAAAGUGGAGGGGGCGG', 0.112),
  ('AACAGUGCGAAUGCCGGUCCCAAGCCCGGAUAAAAGUGGAGGGGGCGG', 0.125),
  ('AACACUGCCAAUGGCGGUCCCAUGCCCGGAUAAAAGUGGAGGGGGCGG', 0.0448),
  ('GACACUGCCAAUGCCGGUCCCAAGCCCGGAUAAAAGUGGCGGGGGCGG', 0.218),
  ('AACACUGCCAACGCCGGUCCCAAGCCCGGAUAAAAGUGGAGGGGGCGG', 0.961),
  ('AACACUGCCAAUGCCGGUCCCAAGCCGGGAAAAAAGUGGAGGGGGCGG', 0.099),
  ('AACACUUCCAAUGCCGGUCCCAAGCCCGGAUAAAUGUGGAGGGGGCGG', 0.109),
  ('AACACUGCCAAUGUCGGUCCCAAGCCCGGAUAAAAGUGGGGGGGGCGG', 0.21),
  ('AACACUGCCAAUUCCGGUCCCAAGCCCGGAUAACAGUGGAGGGGGCGG', 0.083),
  ('AACACUGCCAAUGCCGGUCCCAAGCCCGGAUAAAAGAGGUGGGGGCGG', 0.137),
  ('AACCCUGCCCAUGCCGGUCCCAAGCCCGGAUAAAAGUGGAGGGGGCGG', 0.152),
  ('AACACUGCCAAUGCCGAUCCCAAACCCGGAUAAAAGUGGAGGGGGCGG', 0.118),
  ('AACACUGCCAAUGCUGGACCCAAGCCCGGAUAAAAGUGGAGGGGGCGG', 0.379),
  ('AACACUGCCAAUCCCGGUCACAAGCCCGGAUAAAAGUGGAGGGGGCGG', 0.0483),
  ('AACACUGCCAAUGCCGGACCCAUGCCCGGAUAAAAGUGGAGGGGGCGG', 0.753),
  ('AAAACUGCCAAUGCCGGUCCCAAGCCCGGAAAAAAGUGGAGGGGGCGG', 0.163),
  ('CACAGUGCCAAUGCCGGUCCCAAGCCCGGAUAAAAGUGGAGGGGGCGG', 0.227),
  ('AACACUGACAAUGCCGGUCCCAAGCCCGGAUAAACGUGGAGGGGGCGG', 0.405),
  ('AACACUGCCAAUGCCGGUUCCAAGCCCGGAUAAAAGUGGCGGGGGCGG', 0.152),
  ('AACACUGCCAAUGCCGCUCCCAAGCCGGGAUAAAAGUGGAGGGGGCGG', 0.195),
  ('CACACUGCCCAUGCCGGUCCCAAGCCCGGAUAAAAGUGGAGGGGGCGG', 0.0756),
  ('AACACUGCCAAUGCCGGUCCCAAGCCCGGAUAAAACUGGAGGGUGCGG', 0.512),
  ('GACACUGCCAAUGCCGGUCCCUAGCCCGGAUAAAAGUGGAGGGGGCGG', 0.255),
  ('AACACUGCCUAUGCCGGUCCCAAGCCCGGAUAAAAGGGGAGGGGGCGG', 0.602),
  ('AACACUGCUAAUGCCGGUCCCAAGCCCGGAUAAAAGUGGAGGGGGGGG', 0.651),
  ('AACACUGCCAAUGCUGGUCCCGAGCCCGGAUAAAAGUGGAGGGGGCGG', 0.147),
  ('AACACUGCUAAUGCCGGUCCCAAGCCCGGAUAAAAGUGGAUGGGGCGG', 0.187),
  ('GACACUGCCUAUGCCGGUCCCAAGCCCGGAUAAAAGUGGAGGGGGCGG', 0.428),
  ('AACACUGCCAAUGCCGGUCCCAAGCCCAGAUAAAAGAGGAGGGGGCGG', 0.465),
  ('AACACUGCCAAUGACGGUCCCAAGCCCGGAUAAAAGUGGUGGGGGCGG', 0.143),
  ('AACACUGCCAAUGCCGAUCCCAAGCCCGGAUAAAUGUGGAGGGGGCGG', 0.869),
  ('AACACUGCCAAUGCCGGUCCCUAGCCCGGAUAAAAGUGGAGGGUGCGG', 0.812),
  ('AAGACUGCCAAUGCUGGUCCCAAGCCCGGAUAAAAGUGGAGGGGGCGG', 0.389),
  ('AACACUGCCAUUGCCGGUCCCAAGCCCGGACAAAAGUGGAGGGGGCGG', 1.04),
  ('AACACUGACAUUGCCGGUCCCAAGCCCGGAUAAAAGUGGAGGGGGCGG', 0.7),
  ('AACACUGCCAAUGCCGGUCCCAAGCCCGGAUAAAAGUGGACGGGGCUG', 0.149),
  ('AACACUGCCAAUGCCGGUCCCAAGCACGGAUGAAAGUGGAGGGGGCGG', 0.636),
  ('AACACUGCCUAUGCCGGUCCCAAGCCCUGAUAAAAGUGGAGGGGGCGG', 0.929),
  ('AACACUGCCAAGGUCGGUCCCAAGCCCGGAUAAAAGUGGAGGGGGCGG', 0.756),
  ('AGCACUGCCAGUGCCGGUCCCAAGCCCGGAUAAAAGUGGAGGGGGCGG', 0.164),
  ('AACACUGCCAAUGCCCGUCCCAAGCCCGGAUAAAAGUCGAGGGGGCGG', 0.572),
  ('AACACUGCCAAUGCCGGUGCCAAGCCCAGAUAAAAGUGGAGGGGGCGG', 0.211),
  ('AACAUUGCCAAUGCCGGUCCCAAGCCCGGAUAAUAGUGGAGGGGGCGG', 0.631),
  ('AUCACUGCCAAUUCCGGUCCCAAGCCCGGAUAAAAGUGGAGGGGGCGG', 0.103),
  ('CACACUGCCAAUGCCGGUCGCAAGCCCGGAUAAAAGUGGAGGGGGCGG', 0.0894),
  ('AACACUGCCAAUGCCGGUGCCAAGCCCGGAUAAAAGUGGAGGGGUCGG', 0.174),
  ('AACACUGGCAAAGCCGGUCCCAAGCCCGGAUAAAAGUGGAGGGGGCGG', 0.609),
  ('UACAUUGCCAAUGCCGGUCCCAAGCCCGGAUAAAAGUGGAGGGGGCGG', 0.076),
  ('AACACUGGCAAUGCCGGUCCCAGGCCCGGAUAAAAGUGGAGGGGGCGG', 0.0516),
  ('AACGCUGCCAAUGCCGGGCCCAAGCCCGGAUAAAAGUGGAGGGGGCGG', 0.0583),
  ('AAGACUGCCAAUGCCGGUCCCAAGCCGGGAUAAAAGUGGAGGGGGCGG', 0.0859),
  ('AACACUGCCAAUGCCGGUCCCCAGCCUGGAUAAAAGUGGAGGGGGCGG', 0.901),
  ('AACACUGCGAAUGCCGGUCCCAAGCCCGGAUAAAAGUGGAGCGGGCGG', 0.199),
  ('AACACUGCCAAUACCGGUCCCAAGCCCGGAUAAAACUGGAGGGGGCGG', 0.118),
  ('AACACUGCCAAUGCCGGUCCCAAGCUCGAAUAAAAGUGGAGGGGGCGG', 0.212),
  ('AACACUGCCAAUGCCGGUCCCAAGCCCGGAUAAAAGUGGAGGAUGCGG', 0.271),
  ('AACACUGCCAAUGCUGGUCCCAACCCCGGAUAAAAGUGGAGGGGGCGG', 0.115),
  ('AACACUGCCAAGGCCGGUACCAAGCCCGGAUAAAAGUGGAGGGGGCGG', 0.601),
  ('AACACUGCCAAUGCCGGUCCCAAGCCCGGAUAAGAGUGGUGGGGGCGG', 0.122),
  ('AAAACUGCCAAUGCCGGUCCCAAGCCCGUAUAAAAGUGGAGGGGGCGG', 0.231),
  ('UACACUGGCAAUGCCGGUCCCAAGCCCGGAUAAAAGUGGAGGGGGCGG', 0.0353),
  ('AACACUGCCUAUGCCGGUCCCAAGCCUGGAUAAAAGUGGAGGGGGCGG', 0.93),
  ('AACACUUCCAAUGCCGGUCCCAAGCGCGGAUAAAAGUGGAGGGGGCGG', 0.0462),
  ('AGCACUGCCAAUGCCGGUCCCUAGCCCGGAUAAAAGUGGAGGGGGCGG', 0.133),
  ('AACAUUGCCAAUGCCGGUCCCAAGCCCGGAUAAAAGCGGAGGGGGCGG', 0.283),
  ('AACACUGCCAAUGCCAGUCCCAAGCCCGGAUAAAAGUGGAGGGUGCGG', 1),
  ('AACAGUGCCAAUGCCGGUCCCAAGCCCGGAUAAAAGUGGAGGAGGCGG', 0.153),
  ('AACACUGCCAAUGCCGGUCCCAAGCCCGGAUAAACGUGCAGGGGGCGG', 0.153),
  ('AACACUGCCAAUGCCGGUCCCAAGCCCGGACCAAAGUGGAGGGGGCGG', 0.965),
  ('AACACCGCCAAUGCCGGUCCCAAGCCCGGAUAAAAGUGCAGGGGGCGG', 0.136),
  ('GACAGUGCCAAUGCCGGUCCCAAGCCCGGAUAAAAGUGGAGGGGGCGG', 0.172),
  ('AACACUGCCAACGCCGGUCCCAAGCCCGGAUAAAAGUGGAGAGGGCGG', 0.42),
  ('AACACUGCCUAUGCCGGUCCCAAGCCCGGAUAAAAUUGGAGGGGGCGG', 0.716),
  ('AACACUGCCAAUGCCGGUCCCAAGCCCGGAUAAAAGUGGAGGGCGCGG', 0.971),
  ('AACACUGACAAUGCCGGUCCCAACCCCGGAUAAAAGUGGAGGGGGCGG', 0.31),
  ('UACACUGCCAAUGCCGGUCCCAAGCCCGGCUAAAAGUGGAGGGGGCGG', 0.0658),
  ('UACACUACCAAUGCCGGUCCCAAGCCCGGAUAAAAGUGGAGGGGGCGG', 0.0601),
  ('AACACCACCAAUGCCGGUCCCAAGCCCGGAUAAAAGUGGAGGGGGCGG', 0.0638),
  ('AACACUUCCAAUGCCGGUCCCAAGCCCGGAUAAAAGUGAAGGGGGCGG', 0.0425),
  ('AACAUUGCCAAUGCCGGUCCCAAGCCCGGAUAAAAUUGGAGGGGGCGG', 0.644),
  ('AACACUGCCAAUGCCGGUCCCAGGCCCGGAUAAAAGUGAAGGGGGCGG', 0.143),
  ('AACCCUGCCAAUGCCGGUCCCAAGCCCGGAUAAAAGUGGAGGGAGCGG', 0.165),
  ('AACACUGCCAGUGCCGGUCCCAAGCCCGGAUAAAAGUGGAGGGGGGGG', 0.938);
